Let's look at some molecules and their measured IC50.
# TEST_TARGET: IDH2/R140Q (Homo sapiens, UniProt P48735, R140Q)
# Sequence (P48735 40-452 R140Q): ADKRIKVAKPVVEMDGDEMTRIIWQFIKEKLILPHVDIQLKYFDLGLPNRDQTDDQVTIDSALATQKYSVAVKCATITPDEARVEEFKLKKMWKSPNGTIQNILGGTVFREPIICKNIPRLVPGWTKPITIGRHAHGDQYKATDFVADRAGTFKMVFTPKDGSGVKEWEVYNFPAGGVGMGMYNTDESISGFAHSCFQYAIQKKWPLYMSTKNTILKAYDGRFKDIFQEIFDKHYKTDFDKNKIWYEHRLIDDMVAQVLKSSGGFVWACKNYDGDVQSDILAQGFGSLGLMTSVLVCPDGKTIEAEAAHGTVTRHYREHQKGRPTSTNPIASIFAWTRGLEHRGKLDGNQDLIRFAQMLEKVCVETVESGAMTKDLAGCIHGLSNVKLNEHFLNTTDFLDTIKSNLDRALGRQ
# ASSAY_INFO: Determination of the inhibitory activity of the compounds on IDH2/R140Q (NADPH reduction, resazurin/lipoamide dehydrogenase detection)
# Assay type: biochemical
# Design: purchased Abcam ab198153
# RUN_PARAMETERS: IDH2/R140Q inhibitory activity; pre-incubated at 25° C. for 16 hours; read-out: IC50

SMILES_STRUCTURE | IC50
Cc1cc2c(NCC3CC3)nc(-c3ccccc3)nc2[nH]1 | 1000 to 10000 nM

For record Cc1cc2c(NCC(C)(C)O)nc(-c3ccccc3)nc2[nH]1 the listed IC50 is > 10000 nM

For record Cc1cc2c(NC3CC3)nc(-c3ccc(F)cc3)nc2[nH]1 the listed IC50 is 1000 to 10000 nM

For record Cc1cc2c(NC(C)C)nc(-c3ccccc3)nc2[nH]1 the listed IC50 is 100 to 1000 nM

For record Cn1cnc2c(Nc3ccccc3)nc(-c3ccccc3)nc21 the listed IC50 is > 10000 nM

---

# TEST_TARGET: IDH2/R140Q (Homo sapiens, UniProt P48735, R140Q)
# Sequence (P48735 40-452 R140Q): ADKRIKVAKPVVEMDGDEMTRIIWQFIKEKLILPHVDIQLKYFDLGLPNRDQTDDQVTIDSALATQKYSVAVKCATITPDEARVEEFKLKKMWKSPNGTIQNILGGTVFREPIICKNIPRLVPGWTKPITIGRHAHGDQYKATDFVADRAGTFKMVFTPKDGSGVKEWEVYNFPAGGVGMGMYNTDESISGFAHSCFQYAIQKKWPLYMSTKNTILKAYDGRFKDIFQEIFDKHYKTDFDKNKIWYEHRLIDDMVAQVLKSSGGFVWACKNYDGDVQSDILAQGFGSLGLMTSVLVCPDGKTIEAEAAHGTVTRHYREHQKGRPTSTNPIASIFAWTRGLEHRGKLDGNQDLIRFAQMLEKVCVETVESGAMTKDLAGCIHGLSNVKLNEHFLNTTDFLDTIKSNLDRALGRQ
# ASSAY_INFO: Inhibition of mutant IDH2 activity at the cell level (extracellular 2-HG, U87MG overexpressing IDH2/R140Q)
# Type: cell-based
# RUN_PARAMETERS: U87MG overexpressing IDH2/R140Q; 2-HG in medium after 24 hours of culturing with compound; read-out: IC50
pIC50: −log10 of the molar value.
Let's look at some compounds and their measured pIC50.

For record Cc1cc2c(NCC3CC3)nc(-c3ccccc3)nc2[nH]1 [Compound 29] the listed pIC50 is 5.00 to 6.00

For record c1ccc(Nc2nc(-c3ccccc3)nc3[nH]cnc23)cc1 [Compound 6, N,2-diphenyl-9H-purin-6-amine] the listed pIC50 is < 5.00

For record Cc1ccc(-c2nc(NC3CC3)c3cc(C)[nH]c3n2)cc1 [Compound 45] the listed pIC50 is 5.00 to 6.00

For record CCOC(=O)Cc1cc2c(Nc3ccccc3)nc(-c3ccccc3)nc2[nH]1 [Compound 44] the listed pIC50 is 5.00 to 6.00

For record Cc1cc2c(NC(C)C)nc(-c3ccncc3)nc2[nH]1 [Compound 18] the listed pIC50 is < 5.00

For record Cc1cc2c(NC3CCCC3)nc(-c3ccccc3)nc2[nH]1 [Compound 36] the listed pIC50 is 6.00 to 7.00

For record Cc1cc2c(-c3ccccc3)nc(NC(C)C)nc2[nH]1 [Compound 40] the listed pIC50 is < 5.00

For record CC(C)n1cnc2c(-c3ccccc3)nc(Nc3ccccc3)nc21 [Compound 12] the listed pIC50 is < 5.00

For record Cn1cnc2c(Nc3ccccc3)nc(-c3ccccc3)nc21 [Compound 24, 9-methyl-N,2-diphenyl-9H-purin-6-amine] the listed pIC50 is < 5.00

For record Cc1cc2c(NC3CCCC3)nc(-c3ccccc3F)nc2[nH]1 [Compound 51] the listed pIC50 is > 7.00

For record Cc1cc2c(NC(C)C)nc(-c3ccccn3)nc2[nH]1 [Compound 16] the listed pIC50 is 5.00 to 6.00

For record Cc1cc2c(NC3CCCCC3)nc(-c3ccccc3)nc2[nH]1 [Compound 37] the listed pIC50 is 5.00 to 6.00

For record Cc1cc2c(Nc3ccnc(F)c3)nc(-c3ccccc3)nc2[nH]1 [Compound 21] the listed pIC50 is 5.00 to 6.00

For record Cc1cc2c(Nc3cccc(Cl)c3)nc(-c3ccccc3)nc2[nH]1 [Compound 41] the listed pIC50 is 5.00 to 6.00
